Provenance of the data: paper PMC7854685

Molecular target: PARP2 (Homo sapiens, UniProt Q9UGN5)
Construct: Wild-type PARP1 and PARP2 were expressed and purified as previously described; made in house
Sequence (Q9UGN5 whole entry): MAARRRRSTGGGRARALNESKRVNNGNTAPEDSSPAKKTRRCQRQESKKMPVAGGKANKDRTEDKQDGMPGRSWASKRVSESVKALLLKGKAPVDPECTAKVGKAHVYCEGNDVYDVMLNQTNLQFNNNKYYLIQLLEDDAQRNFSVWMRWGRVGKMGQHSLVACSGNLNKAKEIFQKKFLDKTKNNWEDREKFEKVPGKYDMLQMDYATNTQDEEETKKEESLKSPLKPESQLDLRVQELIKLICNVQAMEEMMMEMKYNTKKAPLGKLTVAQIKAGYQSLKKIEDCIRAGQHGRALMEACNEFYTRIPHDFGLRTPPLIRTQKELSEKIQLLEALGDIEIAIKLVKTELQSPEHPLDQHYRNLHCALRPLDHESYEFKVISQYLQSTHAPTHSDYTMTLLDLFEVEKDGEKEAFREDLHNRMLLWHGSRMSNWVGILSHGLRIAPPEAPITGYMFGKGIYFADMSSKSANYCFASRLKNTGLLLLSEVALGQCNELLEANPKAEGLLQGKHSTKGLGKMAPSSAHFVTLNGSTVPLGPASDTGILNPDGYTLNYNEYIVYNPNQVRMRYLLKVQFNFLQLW
Assay: Fluorescence polarization association/dissociation of fl-Ola, with p18mer or Nuc165, with or without HPF1;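 also: fluorescence polarization read every minute over 1000 min, association and dissociation traces fitted to a single exponential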
Assay type: binding
Details: PARP2, Nuc165
METRIC NAME: pKd
// field semantics: pKd = negative decimal log of concentration (mol/L)

Task item: // returns reported pKd for input CC1=CC(C)=[N+]2C1=Cc1ccc(CCC(=O)N3CCN(C(=O)c4cc(Cc5n[nH]c(=O)c6ccccc56)ccc4F)CC3)n1[B-]2(F)F [fl-Ola]
Reply: 10.74
